# System: SW1573
# assay remarks: Antiproliferative activity against resistant human SW1573 2R 160 cells harboring P-gp after 72 hrs by MTT assay
# Type: functional, cell-based
# measurement conditions: SW1573, 72 h
pIC50: −log10 of the molar value.
endpoint label: pIC50

Field: example entries. Status: answers known.
- line notation: "COC(=O)c1c(C)nc(NNC(=O)c2cccc3c(=O)c4ccccc4[nH]c23)nc1-c1cccc(OC)c1"
  observed result: 5.00
- line notation: "CCOC(=O)c1c(C)nc(NNC(=O)c2cccc3c(=O)c4ccccc4[nH]c23)nc1-c1ccc(OC)c(OC)c1"
  observed result: 4.21

a = COC(=O)c1c(C)nc(NNC(=O)c2cccc3c(=O)c4ccccc4[nH]c23)nc1-c1ccc(F)cc1
b = COC(=O)c1c(C)nc(NNC(=O)c2cccc3c(=O)c4ccccc4[nH]c23)nc1-c1ccc(OC)c(OC)c1
[in] Quick one: lower pIC50, a or b ? Answer with the label corresponding to your selection.
[out] a
(a: 4.21, b: 4.92)
